# Test system: HIV wild type (WTRVA)
# experiment: HeLa cell assay, wild type virus (WTRVA)
# Type: cell-based, HIV-1
# Parameters: scale not given here
# condition: Human immunodeficiency virus 1, HeLa, HeLa-CD4-LTR-β-gal cells, wild type virus; read-out: WTRVA activity level
pIC50: −log10 of the molar value. Structures can show the parent of a compound that is named as a salt.
Recorded measurements of pIC50, one per entry
property name: pIC50

compound | result
N#Cc1cc(Cl)cc(Oc2c(Cl)ccc(CNC(=O)c3cc4cc([N+](=O)[O-])ccc4o3)c2F)c1 [Example 50, trifluoroacetate] | 6.00 to 8.00
N#Cc1cc(Cl)cc(Oc2c(Cl)ccc(CNC(=O)c3cc4ccc(C#N)cc4[nH]3)c2F)c1 [Example 79, trifluoroacetate] | > 8.00
CS(=O)(=O)c1cc(F)cc2cc(C(=O)NCc3ccc(Cl)c(Oc4cc(Cl)cc(C#N)c4)c3F)[nH]c12 | 6.00 to 8.00
COc1cc2cc(C(=O)NCc3ccc(Cl)c(Oc4cc(Cl)cc(C#N)c4)c3F)[nH]c2cn1 [Example 46, trifluoroacetate] | > 8.00
CSc1ncc(Cl)c(C(=O)NCc2ccc(Cl)c(Oc3cc(Cl)cc(C#N)c3)c2F)n1 | 6.00 to 8.00
CC(C)c1nc(Cl)c(C(=O)NCc2ccc(Cl)c(Oc3cc(Cl)cc(C#N)c3)c2F)[nH]1 [Example 135, trifluoroacetate] | > 8.00
N#Cc1cc(Cl)cc(Oc2c(Cl)ccc(CNC(=O)c3cc4cc(N)ccc4[nH]3)c2F)c1 [Example 111, trifluoroacetate] | > 8.00

###

# Test system: HIV wild type (WTRVA)
# experiment: HeLa cell assay, wild type virus (WTRVA)
# Format: cell-based, HIV-1
# Set-up: scale not given here
# condition: Human immunodeficiency virus 1, HeLa, HeLa-CD4-LTR-β-gal cells, wild type virus; read-out: WTRVA activity level
pIC50: −log10 of the molar value. Where a name gives a salt, the structure may show the parent alone.
Recorded measurements of pIC50, one per entry
property name: pIC50

compound | tested target | result
N#Cc1cc(Cl)cc(Oc2c(Cl)ccc(CNC(=O)c3cc4cc(NC(=O)CCN)ccc4[nH]3)c2F)c1 | HIV wild type (WTRVA) | > 8.00
COc1ccc2[nH]c(C(=O)NCc3ccc(Cl)c(Oc4cc(Cl)cc(C#N)c4)c3F)c(NC(C)=O)c2c1 [Example 56, trifluoroacetate] | HIV wild type (WTRVA) | 6.00 to 8.00
N#Cc1cc(Cl)cc(Oc2c(Cl)ccc(CNC(=O)c3[nH]ccc3Cl)c2F)c1 | HIV wild type (WTRVA) | > 8.00
Cn1cnc(C(=O)NCc2ccc(Cl)c(Oc3cc(Cl)cc(C#N)c3)c2F)c1 [Example 64, trifluoroacetate] | HIV wild type (WTRVA) | 6.00 to 8.00
N#Cc1cc(Cl)cc(Oc2c(Cl)ccc(CNC(=O)c3cc4c5c(ccc4[nH]3)N(C(N)=O)CC5)c2F)c1 | HIV wild type (WTRVA) | > 8.00
N#Cc1cc(Cl)cc(Oc2c(Cl)ccc(CNC(=O)c3cc4cccc(N)c4[nH]3)c2F)c1 | HIV wild type (WTRVA) | > 8.00
N#Cc1cc(Cl)cc(Oc2c(Cl)ccc(CNC(=O)c3[nH]c4ccccc4c3Br)c2F)c1 | HIV wild type (WTRVA) | 6.00 to 8.00
CN1CCCC1CCOc1ccc2[nH]c(C(=O)NCc3ccc(Cl)c(Oc4cc(Cl)cc(C#N)c4)c3F)cc2c1 (centres unmarked) | HIV wild type (WTRVA) | > 8.00
N#Cc1cc(Cl)cc(Oc2c(Cl)ccc(CNC(=O)c3cc4cc(OCCN5CCOCC5)ccc4[nH]3)c2F)c1 | HIV wild type (WTRVA) | > 8.00
N#Cc1cc(Cl)cc(Oc2c(Cl)ccc(CNC(=O)c3ccccn3)c2F)c1 | HIV wild type (WTRVA) | > 8.00
COc1ccc2[nH]c(C(=O)NCc3ccc(Cl)c(Oc4cc(Cl)cc(C#N)c4)c3)cc2c1 | HIV wild type (WTRVA) | 6.00 to 8.00
COc1ccc(C(=O)NCc2ccc(Cl)c(Oc3cc(Cl)cc(C#N)c3)c2)c(C)c1 | HIV wild type (WTRVA) | < 6.00
N#Cc1cc(Cl)cc(Oc2c(Cl)ccc(CNC(=O)c3cc4ccc(OCCO)cc4[nH]3)c2F)c1 | HIV wild type (WTRVA) | > 8.00
Cn1ccnc1C(=O)NCc1ccc(Cl)c(Oc2cc(Cl)cc(C#N)c2)c1F [Example 72, trifluoroacetate] | HIV wild type (WTRVA) | 6.00 to 8.00
N#Cc1cc(Cl)cc(Oc2c(Cl)ccc(CNC(=O)c3csc(-c4cccnc4)n3)c2F)c1 [Example 98, trifluoroacetate] | HIV wild type (WTRVA) | > 8.00
CN(C)c1ccc2[nH]c(C(=O)NCc3ccc(Cl)c(Oc4cc(Cl)cc(C#N)c4)c3F)cc2c1 | HIV wild type (WTRVA) | > 8.00
CSc1ncccc1C(=O)NCc1ccc(Cl)c(Oc2cc(Cl)cc(C#N)c2)c1F [Example 86, trifluoroacetate] | HIV wild type (WTRVA) | 6.00 to 8.00
N#Cc1cc(Cl)cc(Oc2cc(CNC(=O)c3ccc(Cl)c(S(N)(=O)=O)c3)ccc2Cl)c1 [Example 5, trifluoroacetate] | HIV wild type (WTRVA) | 6.00 to 8.00
N#Cc1cc(Cl)cc(Oc2cc(CNC(=O)c3ccc(S(N)(=O)=O)cc3Cl)ccc2Cl)c1 [Example 4, trifluoroacetate] | HIV wild type (WTRVA) | 6.00 to 8.00
N#Cc1cc(Cl)cc(Oc2c(Cl)ccc(CNC(=O)c3cc4cc(Cl)ccc4s3)c2F)c1 [Example 51, trifluoroacetate] | HIV wild type (WTRVA) | < 6.00
Cc1cc(Br)cc2cc(C(=O)NCc3ccc(Cl)c(Oc4cc(Cl)cc(C#N)c4)c3F)[nH]c12 | HIV wild type (WTRVA) | 6.00 to 8.00
Cc1nnsc1C(=O)NCc1ccc(Cl)c(Oc2cc(Cl)cc(C#N)c2)c1F | HIV wild type (WTRVA) | > 8.00
CN(Cc1ccc(Cl)c(Oc2cc(Cl)cc(C#N)c2)c1F)C(=O)c1ccc[nH]1 | HIV wild type (WTRVA) | > 8.00
N#Cc1cc(Cl)cc(Oc2c(Cl)ccc(CNC(=O)c3cc4cc(Cl)ccc4o3)c2F)c1 [Example 49, trifluoroacetate] | HIV wild type (WTRVA) | < 6.00
CCc1c(C(=O)NCc2ccc(Cl)c(Oc3cc(Cl)cc(C#N)c3)c2F)[nH]c2ccc(OC)cc12 [Example 81, trifluoroacetate] | HIV wild type (WTRVA) | 6.00 to 8.00
N#Cc1cc(Cl)cc(Oc2c(Cl)ccc(CNC(=O)c3ccc[nH]3)c2F)c1 | HIV wild type (WTRVA) | > 8.00
N#Cc1cc(Cl)cc(Oc2c(Cl)ccc(CNC(=O)c3[nH]c4cc(O)ccc4c3Br)c2F)c1 [Example 61, trifluoroacetate] | HIV wild type (WTRVA) | > 8.00
N#Cc1cc(Cl)cc(Oc2c(Cl)ccc(CNC(=O)c3cc4cc(OC[C@H]5CNCCO5)ccc4[nH]3)c2F)c1 | HIV wild type (WTRVA) | > 8.00
CC(C)(C)OC(=O)Nc1cccc2cc(C(=O)NCc3ccc(Cl)c(Oc4cc(Cl)cc(C#N)c4)c3F)[nH]c12 | HIV wild type (WTRVA) | 6.00 to 8.00
